biological target: MYLK (human) (UniProt Q15746); assay: radiometric filter-binding kinase assay, Kinase HotSpot; settings: compound 0.5 µM; ATP 10 µM
Sequence (Q15746 whole entry, looked up): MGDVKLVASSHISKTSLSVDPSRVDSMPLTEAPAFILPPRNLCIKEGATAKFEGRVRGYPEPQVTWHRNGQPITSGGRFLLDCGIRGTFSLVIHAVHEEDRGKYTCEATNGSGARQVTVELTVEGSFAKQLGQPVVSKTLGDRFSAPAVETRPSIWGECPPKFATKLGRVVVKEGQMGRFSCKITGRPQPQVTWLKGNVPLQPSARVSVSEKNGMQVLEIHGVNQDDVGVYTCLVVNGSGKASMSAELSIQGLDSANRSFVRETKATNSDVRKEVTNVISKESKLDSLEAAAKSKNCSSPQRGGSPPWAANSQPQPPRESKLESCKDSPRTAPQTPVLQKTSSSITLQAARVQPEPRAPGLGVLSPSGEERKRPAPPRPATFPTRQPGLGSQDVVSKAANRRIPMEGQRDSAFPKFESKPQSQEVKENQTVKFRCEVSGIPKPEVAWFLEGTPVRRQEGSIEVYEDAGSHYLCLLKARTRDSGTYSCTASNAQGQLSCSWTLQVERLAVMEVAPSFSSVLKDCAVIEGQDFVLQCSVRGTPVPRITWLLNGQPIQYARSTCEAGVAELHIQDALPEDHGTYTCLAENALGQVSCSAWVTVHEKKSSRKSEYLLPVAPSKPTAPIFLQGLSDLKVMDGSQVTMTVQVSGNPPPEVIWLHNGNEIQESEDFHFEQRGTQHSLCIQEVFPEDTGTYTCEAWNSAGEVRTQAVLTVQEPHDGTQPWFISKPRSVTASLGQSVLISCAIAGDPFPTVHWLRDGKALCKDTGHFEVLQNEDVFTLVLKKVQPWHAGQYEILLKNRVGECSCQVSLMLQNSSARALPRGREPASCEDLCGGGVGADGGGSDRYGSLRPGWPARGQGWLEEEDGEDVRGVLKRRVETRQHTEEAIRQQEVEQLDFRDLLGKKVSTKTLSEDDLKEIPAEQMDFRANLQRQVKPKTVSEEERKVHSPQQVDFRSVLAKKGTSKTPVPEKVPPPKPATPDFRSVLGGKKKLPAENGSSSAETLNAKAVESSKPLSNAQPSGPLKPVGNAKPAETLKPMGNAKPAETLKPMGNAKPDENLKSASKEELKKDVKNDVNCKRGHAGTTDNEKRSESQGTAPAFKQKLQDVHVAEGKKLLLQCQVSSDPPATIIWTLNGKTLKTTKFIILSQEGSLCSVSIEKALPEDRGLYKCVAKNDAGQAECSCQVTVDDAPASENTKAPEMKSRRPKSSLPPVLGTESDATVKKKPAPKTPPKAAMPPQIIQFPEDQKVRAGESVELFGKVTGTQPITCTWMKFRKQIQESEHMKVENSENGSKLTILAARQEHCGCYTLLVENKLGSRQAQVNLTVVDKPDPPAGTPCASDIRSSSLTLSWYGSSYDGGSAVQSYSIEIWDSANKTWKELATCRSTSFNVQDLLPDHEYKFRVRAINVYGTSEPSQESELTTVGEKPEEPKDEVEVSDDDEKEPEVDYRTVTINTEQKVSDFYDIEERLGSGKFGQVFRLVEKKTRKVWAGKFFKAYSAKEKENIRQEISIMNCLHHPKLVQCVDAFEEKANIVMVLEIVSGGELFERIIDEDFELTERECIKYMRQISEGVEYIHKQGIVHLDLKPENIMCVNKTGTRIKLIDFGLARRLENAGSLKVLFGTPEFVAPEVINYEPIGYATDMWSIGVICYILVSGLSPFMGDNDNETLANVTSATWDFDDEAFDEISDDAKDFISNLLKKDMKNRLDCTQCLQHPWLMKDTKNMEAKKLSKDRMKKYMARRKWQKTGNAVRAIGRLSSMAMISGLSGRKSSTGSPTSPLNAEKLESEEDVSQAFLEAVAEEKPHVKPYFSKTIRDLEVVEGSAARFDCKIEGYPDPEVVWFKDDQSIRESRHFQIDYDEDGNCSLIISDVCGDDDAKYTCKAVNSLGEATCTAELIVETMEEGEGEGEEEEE
The entries below are paired with their reported residual activity.
# output: bare number, implied unit %

Consider the worked cases shown below.
| Compound | residual activity / % |
| --- | --- |
| CCC(=O)Nc1ccc2ncnc(Nc3cccc(Br)c3)c2c1 | 95.5 |
| CO[C@H]1CC2CC[C@@H](C)[C@@](O)(O2)C(=O)C(=O)N2CCCC[C@H]2C(=O)OC([C@H](C)C[C@@H]2CC[C@@H](O)[C@H](OC)C2)CC(=O)[C@H](C)/C=C(\C)[C@@H](O)[C@@H](OC)C(=O)[C@H](C)C[C@H](C)/C=C/C=C/C=C/1C (some centres undefined) | 102 |
| CC(C)N(CCC(=O)c1ccc2ccccc2c1)Cc1ccccc1 | 95.6 |

Query: Name the reported residual activity value associated with the compound "CC#CC(=O)Nc1cc2c(Nc3ccc(F)c(Cl)c3)ncnc2cn1"
Reply: 98.8

Query: Ok, now "CCCC(=O)Oc1ccc2[nH]c(C(=O)c3cc4ccccc4[nH]3)cc2c1"
Reply: 102

Query: Ok, now "COc1cc2ncnc(Nc3cccc(Cl)c3)c2cc1OC"
Reply: 89

Query: Ok, now "CNc1cc2c(Nc3cccc(Br)c3)ncnc2cn1"
Reply: 79.5

Query: Ok, now "CCOC(=O)c1c(C)[nH]c(/C=C2\C(=O)Nc3ccccc32)c1C"
Reply: 94.8

Query: Ok, now "COc1ccc2c(c[n+](C)c3c4cc5c(cc4ccc23)OCO5)c1OC"
Reply: 100

###

target: CSNK2A2 (human) (UniProt P19784); assay: radiometric filter-binding kinase assay, Kinase HotSpot; conditions: compound 0.5 µM; ATP 10 µM
Sequence (P19784 whole entry, looked up): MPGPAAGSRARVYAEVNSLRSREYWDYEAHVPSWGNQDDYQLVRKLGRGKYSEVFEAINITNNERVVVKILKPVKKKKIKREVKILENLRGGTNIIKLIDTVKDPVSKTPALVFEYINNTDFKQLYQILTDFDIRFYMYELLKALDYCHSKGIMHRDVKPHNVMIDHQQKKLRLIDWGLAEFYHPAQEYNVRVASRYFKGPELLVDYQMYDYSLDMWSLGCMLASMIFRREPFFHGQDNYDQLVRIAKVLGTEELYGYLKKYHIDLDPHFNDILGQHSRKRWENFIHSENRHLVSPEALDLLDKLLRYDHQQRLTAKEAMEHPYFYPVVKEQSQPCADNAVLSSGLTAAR
The entries below are paired with their reported residual activity.
Answer by giving the amount and then stating its unit.

Consider the worked cases shown below.
| Compound Smiles | Target Under Test | residual activity |
| --- | --- | --- |
| O=C1Nc2ccc(Cl)cc2/C1=C/c1cc(Cl)c(O)c(Cl)c1 | CSNK2A2 (human) (UniProt P19784) | 33.3% |
| CCC(=O)Nc1ccc2ncnc(Nc3cccc(Br)c3)c2c1 | CSNK2A2 (human) (UniProt P19784) | 61.4% |

// next item, residual activity requested
Query: Notebook entry, CSNK2A2 (human) (UniProt P19784) assay: residual activity of "CCN(CC)CCNC(=O)c1c(C)[nH]c(/C=C2\C(=O)Nc3ccc(F)cc32)c1C" = ?
Reply: 92.2%

###

The entries below are paired with their reported residual activity.
target: FER (human); assay: radiometric filter-binding kinase assay, Kinase HotSpot; details: compound 0.5 µM; ATP 10 µM
# output: bare number, implied unit %

| Compound Smiles | Unit Tag | Value |
| --- | --- | --- |
| CC[n+]1c(/C=C/N(C)c2ccccc2)n(-c2ccccc2)c2ccc(-c3nc4ccccc4s3)cc21 | % | 98.9 |
| N#CC(C#N)=C(N)/C(C#N)=C/c1ccc(O)cc1 | % | 91.1 |
| Nc1ccc2ncnc(NCCc3ccc(Oc4ccccc4)cc3)c2c1 | % | 99.5 |
| Nc1ncnc2[nH]nc(Nc3ccc(F)cc3)c12 | % | 100 |
| Nc1cccc(-c2cc3c(Oc4cccc(O)c4)ncnc3[nH]2)c1 | % | 44 |

Query: Name the reported residual activity value associated with the molecule "COc1ccc(COc2ccc(Cc3cnc(N)nc3N)cc2OC)cc1"
Reply: 93.4

Query: Ok, now "CCN(CC)CCNC(=O)c1c(C)[nH]c(/C=C2\C(=O)Nc3ccc(Cl)cc32)c1C"
Reply: 17.7

Query: Ok, now "CCOC(=O)c1c(C)[nH]c(/C=C2\C(=O)Nc3ccccc32)c1C"
Reply: 72.5

Query: Ok, now "Cc1ccc(Nc2nccc(N(C)c3ccc4c(C)n(C)nc4c3)n2)cc1S(N)(=O)=O"
Reply: 81.3

Query: Ok, now "COc1ccc2c(c[n+](C)c3c4cc5c(cc4ccc23)OCO5)c1OC"
Reply: 89.8

###

target: PRKD2 (human) (UniProt Q9BZL6); experiment: radiometric filter-binding kinase assay, Kinase HotSpot; conditions: compound 0.5 µM; ATP 10 µM
Sequence (Q9BZL6 whole entry, looked up): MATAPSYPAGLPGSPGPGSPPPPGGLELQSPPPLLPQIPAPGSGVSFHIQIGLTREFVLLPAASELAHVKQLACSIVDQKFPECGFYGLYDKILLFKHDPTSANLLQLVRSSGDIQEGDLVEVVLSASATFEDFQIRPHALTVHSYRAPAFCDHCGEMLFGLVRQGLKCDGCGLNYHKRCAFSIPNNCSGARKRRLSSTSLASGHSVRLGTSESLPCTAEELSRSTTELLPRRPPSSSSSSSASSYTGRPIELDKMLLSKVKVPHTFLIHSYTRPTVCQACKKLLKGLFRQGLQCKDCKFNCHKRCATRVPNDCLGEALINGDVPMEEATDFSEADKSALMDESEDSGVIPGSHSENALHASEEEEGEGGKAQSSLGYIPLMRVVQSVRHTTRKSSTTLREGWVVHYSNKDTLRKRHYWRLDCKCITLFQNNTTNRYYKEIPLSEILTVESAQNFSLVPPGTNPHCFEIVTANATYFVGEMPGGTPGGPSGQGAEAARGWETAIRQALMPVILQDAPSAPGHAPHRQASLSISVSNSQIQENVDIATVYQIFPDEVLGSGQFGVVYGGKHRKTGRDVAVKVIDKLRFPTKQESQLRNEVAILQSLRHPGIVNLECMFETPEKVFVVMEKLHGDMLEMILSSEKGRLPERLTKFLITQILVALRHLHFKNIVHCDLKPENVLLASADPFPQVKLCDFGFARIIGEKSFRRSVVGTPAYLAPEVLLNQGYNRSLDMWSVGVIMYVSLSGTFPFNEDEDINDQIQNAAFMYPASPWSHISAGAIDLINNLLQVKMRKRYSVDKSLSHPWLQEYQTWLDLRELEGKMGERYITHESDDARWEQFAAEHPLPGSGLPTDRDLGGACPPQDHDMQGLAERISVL
Experimental Readout: residual activity (%)
# output: bare number, implied unit %

| Compound Smiles | Target Under Test | residual activity [%] |
| --- | --- | --- |
| COc1ccc2c(c[n+](C)c3c4cc5c(cc4ccc23)OCO5)c1OC | PRKD2 (human) (UniProt Q9BZL6) | 90.1 |

Query: Name the reported residual activity value associated with the molecule "Nc1cccc(-c2cc3c(Oc4cccc(O)c4)ncnc3[nH]2)c1"
Reply: 81.7

Query: Ok, now "CC#CC(=O)Nc1cc2c(Nc3ccc(F)c(Cl)c3)ncnc2cn1"
Reply: 97.6

Query: Ok, now "COc1cc2ncnc(Nc3cccc(Cl)c3)c2cc1OC"
Reply: 92.3

###

The entries below are paired with their reported residual activity.
molecular target: CDK5 CDK5R1 p35 (human) (UniProt Q00535+Q15078); assay: radiometric filter-binding kinase assay, Kinase HotSpot; conditions: compound 0.5 µM; ATP 10 µM
# output: bare number, implied unit %

Consider the worked cases shown below.
| Compound Smiles | residual activity, % |
| --- | --- |
| CCCC(=O)Oc1ccc2[nH]c(C(=O)c3cc4ccccc4[nH]3)cc2c1 | 97.5 |
| CNc1cc2c(Nc3cccc(Br)c3)ncnc2cn1 | 100 |
| c1ccc(-c2n[nH]cc2-c2ccnc3ccccc23)nc1 | 98.6 |

Query: Notebook entry, CDK5 CDK5R1 p35 (human) (UniProt Q00535+Q15078) assay: residual activity of "Cc1ccc(Nc2nccc(N(C)c3ccc4c(C)n(C)nc4c3)n2)cc1S(N)(=O)=O" = ?
Reply: 99.3

Query: Ok, now "c1ccc(-c2n[nH]c3c2oc2ccccc23)cc1"
Reply: 85.8

Query: Ok, now "Cc1ccc(S(=O)(=O)/C=C/C#N)cc1"
Reply: 97

Query: Ok, now "CC#CC(=O)Nc1cc2c(Nc3ccc(F)c(Cl)c3)ncnc2cn1"
Reply: 97.9

Query: Ok, now "Nc1cccc(-c2cc3c(Oc4cccc(O)c4)ncnc3[nH]2)c1"
Reply: 72.2

Query: Ok, now "CNC(=O)c1cc(Oc2ccc(NC(=O)Nc3ccc(Cl)c(C(F)(F)F)c3)cc2)ccn1"
Reply: 99.9

###

target: RAF1 (human) (UniProt P04049); experiment: radiometric filter-binding kinase assay, Kinase HotSpot; settings: compound 0.5 µM; ATP 10 µM
Sequence (P04049 whole entry, looked up): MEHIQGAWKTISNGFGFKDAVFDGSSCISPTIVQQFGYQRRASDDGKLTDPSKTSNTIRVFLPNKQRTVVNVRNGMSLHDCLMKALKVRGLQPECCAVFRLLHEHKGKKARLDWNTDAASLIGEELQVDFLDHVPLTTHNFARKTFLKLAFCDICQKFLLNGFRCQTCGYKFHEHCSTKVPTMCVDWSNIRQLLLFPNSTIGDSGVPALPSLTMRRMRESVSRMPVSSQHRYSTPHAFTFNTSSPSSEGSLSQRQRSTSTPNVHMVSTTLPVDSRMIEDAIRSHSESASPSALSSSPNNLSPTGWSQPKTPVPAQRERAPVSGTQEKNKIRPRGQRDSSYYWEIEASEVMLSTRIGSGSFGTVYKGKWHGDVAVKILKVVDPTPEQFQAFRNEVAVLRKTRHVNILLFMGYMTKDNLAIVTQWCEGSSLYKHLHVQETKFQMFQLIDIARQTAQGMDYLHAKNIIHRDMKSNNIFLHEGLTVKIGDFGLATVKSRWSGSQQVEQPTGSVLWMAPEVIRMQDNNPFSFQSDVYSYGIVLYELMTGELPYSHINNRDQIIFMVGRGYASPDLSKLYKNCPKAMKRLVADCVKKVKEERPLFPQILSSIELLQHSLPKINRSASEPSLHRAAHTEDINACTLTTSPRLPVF
The entries below are paired with their reported residual activity.
# output: bare number, implied unit %

| Compound Smiles | Target Under Test | residual activity (%) |
| --- | --- | --- |
| CNc1cc2c(Nc3cccc(Br)c3)ncnc2cn1 | RAF1 (human) (UniProt P04049) | 87.8 |

Query: Name the reported residual activity value associated with the compound "CC#CC(=O)Nc1cc2c(Nc3ccc(F)c(Cl)c3)ncnc2cn1"
Reply: 85.6

Query: Ok, now "O=C1NC(=O)C(c2cn(CCCn3ccnc3)c3ccccc23)=C1Nc1ccccc1"
Reply: 105

###

target: AURKA (human) (UniProt O14965); experiment: radiometric filter-binding kinase assay, Kinase HotSpot; conditions: compound 0.5 µM; ATP 10 µM
Sequence (O14965 whole entry, looked up): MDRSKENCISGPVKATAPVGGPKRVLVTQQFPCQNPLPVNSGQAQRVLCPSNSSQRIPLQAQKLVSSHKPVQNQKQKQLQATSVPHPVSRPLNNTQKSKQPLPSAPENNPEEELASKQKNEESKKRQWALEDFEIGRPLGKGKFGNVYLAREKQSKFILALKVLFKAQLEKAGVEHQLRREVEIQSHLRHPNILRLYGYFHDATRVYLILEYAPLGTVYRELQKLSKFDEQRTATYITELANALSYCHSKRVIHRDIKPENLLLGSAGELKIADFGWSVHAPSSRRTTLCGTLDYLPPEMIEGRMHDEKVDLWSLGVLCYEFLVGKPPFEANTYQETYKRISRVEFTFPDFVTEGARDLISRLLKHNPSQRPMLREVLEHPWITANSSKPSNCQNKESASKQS
Experimental Readout: residual activity (%)
# output: bare number, implied unit %

Consider the worked cases shown below.
| Compound Smiles | Unit Tag | residual activity |
| --- | --- | --- |
| CC(=O)c1ccc(N2CCOCC2)cc1O | % | 132 |
| O=c1cc(N2CCOCC2)oc2c1ccc1ccccc12 | % | 98 |
| c1ccc(-c2n[nH]c3c2oc2ccccc23)cc1 | % | 103 |

Query: Name the reported residual activity value associated with the compound "O=C1NC(=O)c2c1c1c3ccccc3n3c1c1c2c2ccccc2n1C1CCC3O1"
Reply: 22.3

Query: Ok, now "Nc1ncnc2c1c(-c1ccc(Oc3ccccc3)cc1)cn2C1CCCC1"
Reply: 76.5

###

target: CSK (human); assay: radiometric filter-binding kinase assay, Kinase HotSpot; settings: compound 0.5 µM; ATP 10 µM
The entries below are paired with their reported residual activity.
# output: bare number, implied unit %

Consider the worked cases shown below.
| Compound Smiles | Target Under Test | residual activity (%) |
| --- | --- | --- |
| CCCC(=O)Oc1ccc2[nH]c(C(=O)c3cc4ccccc4[nH]3)cc2c1 | CSK (human) | 83.5 |
| c1ccc(-c2n[nH]c3c2oc2ccccc23)cc1 | CSK (human) | 92.6 |
| CC(C)N(CCC(=O)c1ccc2ccccc2c1)Cc1ccccc1 | CSK (human) | 88.5 |
| CCOC(=O)c1c(C)[nH]c(/C=C2\C(=O)Nc3ccccc32)c1C | CSK (human) | 104 |
| O=C1NC(=O)/C(=C/c2ccc3c(c2)OC(F)(F)O3)S1 | CSK (human) | 88 |

// next item, residual activity requested
Query: Name the reported residual activity value associated with the molecule "CCC(=O)Nc1ccc2ncnc(Nc3cccc(Br)c3)c2c1"
Reply: 89.5
